testDescription: Toxicity liver stage against HepG2, at 10uM
Assay type: cell-based
Design: test concentration 10 uM, cell line HepG2-A16-CD81EGFP
experimentalSetup: human, HepG2-A16-CD81EGFP cells; read-out: INHIBITION
measuredQuantity: cytotoxicity at 10 µM (%)
Please give a number only; it is taken to be in %.

Worked cases, cytotoxicity at 10 µM given:
Query: Identify measured cytotoxicity at 10 µM associated with Cc1[nH]nc(CCC(=O)N2CCCC(OCc3cccnc3)C2)c1C (configuration not stated)
Result: -5.07

Query: Tell me its cytotoxicity at 10 µM given Cc1cc(C(=O)NC2(C#N)CCSCC2)n(C)n1 as the entry.
Result: 22.1

Further cases:
Query: // fetch cytotoxicity at 10 µM given entry N#Cc1ccc(CNCC2(c3ccccc3)CCOCC2)cc1
Result: 8.78

Query: Supply measured cytotoxicity at 10 µM of Cc1n[nH]cc1CNCc1ccnc(OCC(F)(F)F)c1 in your reply.
Result: 5.33

Query: Tell me cytotoxicity at 10 µM reported for O=C1CCN(C(=O)NCCc2c[nH]c3ccc(Cl)cc23)CCN1
Result: 4.26

* * *

testDescription: Toxicity liver stage against HepG2, at 10uM
Format: cell-based
Parameters: test concentration 10 uM, cell line HepG2-A16-CD81EGFP
experimentalSetup: human, HepG2-A16-CD81EGFP cells; read-out: INHIBITION
measuredQuantity: cytotoxicity at 10 µM (%)
Just the number please, in %, no unit attached.

Query: In one line, give reported cytotoxicity at 10 µM of the entry O=C(NCCc1c[nH]cn1)c1ccc(S(=O)(=O)NC2CCCC2)cc1 .
Result: -7.2

Query: Return the recorded cytotoxicity at 10 µM value; entry: O=C(O)c1ccc(N2CCC(Oc3cccc(F)c3)CC2)nc1
Result: -60.7

Query: Item CC(C)c1noc(C2CCCN2C(=O)Cc2cn3ccsc3n2)n1 (centres undefined) : provide cytotoxicity at 10 µM
Result: 4.52

Query: Give me measured cytotoxicity at 10 µM, please, for this compound: O=C(NC1CCS(=O)(=O)C1)c1sccc1OC(F)F (centres undefined)
Result: -0.699

Query: Quote cytotoxicity at 10 µM reported for CC(C)(C)C(=O)NS(=O)(=O)c1ccc(C#N)cc1C(F)(F)F please.
Result: -7.52

Query: Find the measured cytotoxicity at 10 µM of CC(=O)N1CCC(NCc2cccnc2N(C)Cc2ccccc2)CC1 and report it.
Result: -14.1

Further cases:
Query: Specify measured cytotoxicity at 10 µM for CCn1c(CN(C)C(=O)c2ccc(N(C)C)nc2)nc2ccccc21 .
Result: 0.0894

Query: Return value of cytotoxicity at 10 µM for input O=C(NCCCN1CCc2ccccc2C1)c1ccccc1Br , no commentary.
Result: -10.2

Query: Dear colleague, please send me the reported cytotoxicity at 10 µM for CC1(C)CNC(=O)c2nc(-c3ccccc3)[nH]c2C1 when you can.
Result: -7.28

* * *

cytotoxicity at 10 µM values, listed per item
testDescription: Toxicity liver stage against HepG2, at 10uM
Format: cell-based
Set-up: test concentration 10 uM, cell line HepG2-A16-CD81EGFP
experimentalSetup: human, HepG2-A16-CD81EGFP cells; read-out: INHIBITION

Please review the following examples before continuing.
Query: Report measured cytotoxicity at 10 µM; entry is CC(=O)N1CCC2(CCN(C(=O)c3cccc(C(F)(F)F)c3)CC2)C1
Result: -71.5%

Query: Please supply the value of reported cytotoxicity at 10 µM for the item CCc1cnc(CN2CCC(N(C)Cc3noc(C)n3)C2)o1 (stereo unspecified)
Result: 4.92%

Query: Quickly give me recorded cytotoxicity at 10 µM for Cc1cc(C)nc(Nc2cc(C3CCCN(C)C3)nc(C)n2)n1 (stereo unspecified)
Result: -5.12%

Next:
Query: Supply cytotoxicity at 10 µM value. Item: Cn1ccnc1COc1ccc(CSc2nnnn2C2CC2)cc1
Result: -0.146%

Query: Tell me measured cytotoxicity at 10 µM for O=C(CCn1ccc(=O)[nH]c1=O)N1CCC(Oc2ncccc2Cl)CC1 please.
Result: 1.71%

Query: For the compound CCC1=N[C@@]2(CC[C@@H]3CN(S(=O)(=O)CC)C[C@@H]32)C(=O)N1CC , give its reported cytotoxicity at 10 µM.
Result: 5.22%

Query: Report cytotoxicity at 10 µM for CCOc1ccc(S(=O)(=O)NC(=O)CCC2CCCO2)cc1 (stereo unspecified)
Result: -11.5%

Query: Report cytotoxicity at 10 µM for Cc1cc(NC(=O)NCC(O)c2ccc(Cl)cc2Cl)n(C)n1 (stereo unspecified)
Result: -5.38%

Query: Tell me measured cytotoxicity at 10 µM for COCCN(CC(C)C)c1cc(C)ncn1 please.
Result: 1.38%

Query: Provide measured cytotoxicity at 10 µM value, entry: CCOC(=O)C1CN(S(=O)(=O)C2CC2)Cc2ncn(CC)c21 (stereo unspecified)
Result: 6.71%

Query: Query cytotoxicity at 10 µM for O=C(c1ccco1)N1CCO[C@@H]2CNC[C@@H]21
Result: -108%

Query: Consider the compound CCOCC1CN(C(=O)c2cccnc2)Cc2cnn(C)c21 (stereo unspecified) . State its measured cytotoxicity at 10 µM.
Result: -1.28%

src = ChEMBL document CHEMBL4513216
